target-entity: Mitogen-activated protein kinase 9 (Homo sapiens)
test-description: Inhibition of JNK2 (unknown origin) at 10 uM relative to control
metric: inhibition (%)
Note: unit % is implicit; provide only the numeric part.

Cc1n[nH]c2ccnc(Nc3ccccc3F)c12 : 54

Prompt: Kindly indicate its recorded inhibition. Item: Cc1n[nH]c2ccnc(NC3CCCCC3)c12
Response: 41

Prompt: Kindly indicate its recorded inhibition. Item: Cc1n[nH]c2ccnc(OC3CCCCC3)c12
Response: 66

Prompt: Kindly indicate its recorded inhibition. Item: Cc1n[nH]c2ccnc(Nc3ccc4ncsc4c3)c12
Response: 49

====

target-entity: Ribosomal protein S6 kinase alpha-1 (Homo sapiens) (UniProt Q15418)
Sequence (Q15418 whole entry): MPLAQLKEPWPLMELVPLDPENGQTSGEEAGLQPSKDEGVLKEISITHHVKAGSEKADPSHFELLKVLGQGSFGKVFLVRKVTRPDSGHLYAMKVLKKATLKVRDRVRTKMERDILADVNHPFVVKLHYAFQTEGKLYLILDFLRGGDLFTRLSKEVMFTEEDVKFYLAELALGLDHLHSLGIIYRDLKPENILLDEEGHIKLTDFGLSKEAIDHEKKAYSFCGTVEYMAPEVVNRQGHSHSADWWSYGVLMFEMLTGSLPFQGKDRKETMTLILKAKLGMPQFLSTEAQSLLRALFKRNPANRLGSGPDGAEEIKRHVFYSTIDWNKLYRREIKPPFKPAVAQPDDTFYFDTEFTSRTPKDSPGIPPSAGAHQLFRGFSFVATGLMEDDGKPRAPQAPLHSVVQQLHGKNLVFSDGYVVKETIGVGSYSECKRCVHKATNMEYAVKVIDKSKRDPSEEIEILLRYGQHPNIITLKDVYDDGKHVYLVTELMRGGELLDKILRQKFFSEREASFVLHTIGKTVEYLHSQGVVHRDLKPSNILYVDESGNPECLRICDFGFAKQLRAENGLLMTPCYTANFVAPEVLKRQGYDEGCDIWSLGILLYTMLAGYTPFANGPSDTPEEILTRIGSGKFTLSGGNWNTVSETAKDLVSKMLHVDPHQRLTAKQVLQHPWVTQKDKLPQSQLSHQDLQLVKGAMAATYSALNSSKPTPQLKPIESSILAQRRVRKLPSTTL
test-description: Inhibition of RSK1 (unknown origin) at 10 uM relative to control
metric: inhibition (%)
Note: unit % is implicit; provide only the numeric part.

Cc1n[nH]c2ccnc(Nc3ccccc3F)c12 : 61
Cc1n[nH]c2ccnc(NC3CCCCC3)c12 : 59
Cc1n[nH]c2ccnc(Nc3ccc4ncsc4c3)c12 : 84

Prompt: Kindly indicate its recorded inhibition. Item: Cc1n[nH]c2ccnc(OC3CCCCC3)c12
Response: 84
